target: His-hMAGL (recombinant polyhistidine tagged human MAGL protein) (Homo sapiens, UniProt Q99685); construct: made in house; host or cells: E. coli BL21(DE3); assay: Measurement of MAGL inhibitory activity (arachidonic acid production from 2-arachidonylglycerol, RapidFire-mass spectrometry); assay type: biochemical; conditions: MAGL inhibitory rate, test compound 10 μM, 60 min preincubation, 2-arachidonylglycerol substrate
Sequence (Q99685 whole entry): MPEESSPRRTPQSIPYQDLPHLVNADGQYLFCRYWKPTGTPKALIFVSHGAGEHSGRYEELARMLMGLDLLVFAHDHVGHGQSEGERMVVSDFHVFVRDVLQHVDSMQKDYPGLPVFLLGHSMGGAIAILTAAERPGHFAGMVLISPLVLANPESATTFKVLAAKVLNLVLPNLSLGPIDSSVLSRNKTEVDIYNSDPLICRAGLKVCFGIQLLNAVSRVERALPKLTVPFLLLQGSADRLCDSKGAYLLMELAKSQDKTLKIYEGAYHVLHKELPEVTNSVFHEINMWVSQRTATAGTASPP
MEASUREMENT NAME: inhibition at 10 µM (%)

Cc1cc(F)ccc1-c1ccc(OCC2CN(C(=O)N3CC4(CCC(=O)N4)C3)C2)c(F)c1 = 102
O=C1CCC2(CN(C(=O)c3ccc(-c4ccccc4)cc3)C2)N1 = 92
O=C1NC2(CCN(C(=O)c3sc4c(F)c(C(F)(F)F)ccc4c3Cl)C2)CO1 (centres unmarked) = 100
CC(Oc1ccc(F)cc1Cl)C1CCN(C(=O)N2CC3(CCC(=O)N3)C2)CC1 (centres unmarked) = 103
O=C1NC2(CO1)CN(C(=O)c1sc3c(F)ccc(OC(F)F)c3c1Cl)C2 = 101
Cc1cc(-c2ccc3c(Cl)c(C(=O)N4CC5(CCC(=O)N5)C4)sc3c2)ccc1F = 101
Cc1cc(C)c(-c2ccc(C(=O)N3CC4(CCC(=O)N4)C3)cc2)c(C)c1 = 82
CC(C)(C)c1cccc(-c2ccc(C(=O)N3CC4(CCC(=O)N4)C3)cc2)c1 = 101
